Attribution: patent US20250188079A1

system_tested: CBP (Homo sapiens (Human), UniProt Q92793)
Sequence (Q92793 1085-1192): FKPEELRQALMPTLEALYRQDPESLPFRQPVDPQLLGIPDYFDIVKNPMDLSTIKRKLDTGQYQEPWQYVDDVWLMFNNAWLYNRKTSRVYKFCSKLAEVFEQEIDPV
protocol_details: HTRF biochemical assay for CBP activity (TR-FRET, bromodomain)
Format: binding
protocol_conditions: geometric mean, 10-point 3-fold dilution 33 μM to 1.7 nM, read-out: BROMO IC50 TRF TB CBP (μM gmean)
Exercise: for every item that follows, state its recorded IC50.

A selection of reference data follows.
> print(dat)
                                   compound  measurement.kind       assay.value
1  COC(=O)N1CCc2ccc3c(nc(C4CCCCC4)n3C[C@H]3CC[C@H](C(=O)O)CC3)c2C1 [Compound 83]              IC50  0.001 to 0.01 µM
2  COC(=O)N1CCc2ccc3c(nc(C4CCN(C(C)=O)CC4)n3C[C@@H](C(=O)O)c3ccccc3)c2C1 [Compound 62]              IC50  0.001 to 0.01 µM
3  COC(=O)N1Cc2c(ccc3c2nc([C@H]2CC[C@H](C(=O)O)CC2)n3[C@H](C)Cc2ccc(F)c(F)c2)C[C@@H]1C [Compound 129]              IC50  0.001 to 0.01 µM

I need IC50 for every entry listed below, if you could help.
1. COC(=O)N1CCc2ccc3c(nc(-c4ccncc4)n3[C@H](C)Cc3ccccc3)c2C1 [Compound 326]
2. COC(=O)N1CCc2ccc3c(nc([C@H]4CCCOC4)n3C[C@@H](C(=O)O)c3ccccc3)c2C1 [Compound 61]
3. COC(=O)N1CCc2ccc3c(nc(C4CCCCC4)n3C[C@@H]3CCCC[C@@H]3C(=O)O)c2C1 [Compound 195]

Key:
["0.1 to 1 µM", "0.001 to 0.01 µM", "0.01 to 0.1 µM"]
